assay: modulators of CIT2-GFP expression in yeast, confirmation, S. cerevisiae, GFP fusion, cherry picks, mother/daughter gates (AID 2274); details: S. cerevisiae CIT2-GFP strain, flow cytometry, 3 h; measured here: daughter cell gate; at 10 µM; stronger effect = higher value
Metric Name: GFP response, % of DMSO (%)
Please respond with the number in % and leave the unit unwritten.

Below: 6 molecules and their reported GFP response, % of DMSO.
CCCc1ccc(OCC(=O)NNC(=S)NC(=O)c2ccco2)cc1 | 85.2
COc1cccc2c1Oc1ncccc1N(C(=O)CCC(=O)NCc1ccccc1)C2 | 99.2
CS(=O)(=O)N1CCc2cc(C(=O)Nc3ccc(COCC(F)(F)F)cc3)ccc21 | 108
Cc1ccc(N2C(=O)C3C4C=CC(CNC(=S)Nc5cccc(Cl)c5)(O4)C3C2=O)cc1 (stereo unspecified) | 99.2
CC1=NNC(=O)/C1=C\c1cn(-c2ccccc2)nc1-c1ccc(Cl)cc1 | 96.8
COC(=O)c1ccc(/C=C/C(=O)c2ccc(OC)c(OC)c2)cc1 | 106

Data point: O=C(NC(=S)NNC(=O)c1cnccn1)c1ccc(Cl)cc1 ; GFP response, % of DMSO = 105

Data point: Cc1cccc(NC(=O)c2ccc([N+](=O)[O-])o2)c1 ; GFP response, % of DMSO = 106

----------
experiment: promoters of myeloid differentiation in arrested cells, primary screen, cell-based, GFP/MAC1 double positive, flow cytometry, validation set (AID 588685); settings: ER-HoxA9 marrow cells, stronger effect = higher value, normalized: vehicle 0, fulvestrant 100;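 also: compound exposure lasts four days before antibody staining and flow analysis; 0% = DMSO wells and 100% = 5 µM fulvestrant positive control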
Active and inactive are the calls of the source.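 How the source made its calls: active means differentiation response of at least 50%, scaled between solvent and reference control, from cells with both markers; inactive means the rest.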
Metric Name: differentiation response

CC(=O)N=c1sc(S(N)(=O)=O)nn1C | 11.1% (inactive)
CC(C)CC(=O)N(Cc1ccc(F)cc1)C1CCS(=O)(=O)C1 (stereo unspecified) | -8.96% (inactive)
Clc1ccc2c(c1)C(N1CCNCC1)=Nc1ccccc1O2 | -8.27% (inactive)
O=C(O)C1Sc2[nH]c(=O)sc2C2c3ccc(O)cc3OC(=O)C12 (stereo unspecified) | -3.11% (inactive)
COC1CCCCC1Nc1ccc(C)c(C)c1 (stereo unspecified) | -12% (inactive)

Shifting focus to the compound that follows.
Data point: COc1c2occc2c(OC)c2c(=O)cc(C)oc12 ; differentiation response = 33.7% (inactive)

----------
Below, each of the compounds is paired with its reported GFP response, % of DMSO value.
assay: AGP1-GFP expression modulators, hit retest, confirmation, cell-based, flow cytometry, S. cerevisiae, cherry picks (AID 2273);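 also: median GFP channel fluorescence over the whole cell population gate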; settings: S. cerevisiae AGP1-GFP strain, 3 h, at 10 µM
Please respond with the number in % and leave the unit unwritten.

Cn1cnc([N+](=O)[O-])c1S(=O)(=O)c1cccc(Cl)c1 | 113

Data point: O=C(N/N=C/c1c(Cl)cccc1Cl)c1ccc(F)cc1 ; GFP response, % of DMSO = 97.1

Data point: CC[n+]1cc(C)ccc1/C=C/c1ccc(N(C)C)cc1 ; GFP response, % of DMSO = 104

Data point: COc1cc(OC)cc(-c2nc(-c3ccccc3OC)no2)c1 ; GFP response, % of DMSO = 108

Data point: Nc1nc2c(ncn2COCCO)c(=O)[nH]1 ; GFP response, % of DMSO = 102

----------
test: modulators of MEP2-GFP levels in yeast, primary screen, S. cerevisiae, multiplex flow cytometry (AID 1867);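 also: median GFP channel fluorescence of barcode-gated MEP2-GFP cells measured by flow cytometry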; settings: S. cerevisiae MEP2-GFP strain, 3 h, at 10 µM, stronger effect = higher value, 100% means same as DMSO wells
Inconclusive results are not listed.
Below, each of the molecules is paired with its reported GFP response vs DMSO value.
Please respond with the number in % and leave the unit unwritten.

Below: 6 molecules and their reported GFP response vs DMSO.
COCCCC/C(=N\OCCN)c1ccc(C(F)(F)F)cc1 | 108
CC[N+](C)(CC)CCOC(=O)C(O)(c1ccccc1)C1CCCCC1 (configuration not stated) | 103
O=C(O)CCCCCCCC(=O)O | 99.9
COc1ccc(OC)c(-c2oc3ccccc3c(=O)c2O)c1 | 96.9
CC(C)NNC(=O)c1ccncc1 | 101
O=C(NCCCCCc1nc2ccccc2[nH]1)c1ccccc1Cl | 107

Data point: Cc1ccccc1C(OCCN(C)C)c1ccccc1 (configuration not stated) ; GFP response vs DMSO = 98.9

Data point: C#C[C@]1(O)CC[C@H]2[C@@H]3CCC4=C(CCC(=O)C4)[C@H]3CC[C@@]21C ; GFP response vs DMSO = 92.8

Data point: CCOC(=O)c1cccc(C(=O)OCC)n1 ; GFP response vs DMSO = 98.3

Data point: N/C(=N\OS(=O)(=O)c1ccc2ccccc2c1)c1cccnc1 ; GFP response vs DMSO = 104

Data point: CCOC(=O)Nc1ccc2c(c1)N(C(=O)CCN1CCOCC1)c1ccccc1S2 ; GFP response vs DMSO = 102

Data point: COc1ccc2nc(NC(=O)Nc3ccccc3)sc2c1 ; GFP response vs DMSO = 96.9
